Measured On: Cytochrome P450 2C19 (Homo sapiens, UniProt P33261)
Sequence (P33261 whole entry): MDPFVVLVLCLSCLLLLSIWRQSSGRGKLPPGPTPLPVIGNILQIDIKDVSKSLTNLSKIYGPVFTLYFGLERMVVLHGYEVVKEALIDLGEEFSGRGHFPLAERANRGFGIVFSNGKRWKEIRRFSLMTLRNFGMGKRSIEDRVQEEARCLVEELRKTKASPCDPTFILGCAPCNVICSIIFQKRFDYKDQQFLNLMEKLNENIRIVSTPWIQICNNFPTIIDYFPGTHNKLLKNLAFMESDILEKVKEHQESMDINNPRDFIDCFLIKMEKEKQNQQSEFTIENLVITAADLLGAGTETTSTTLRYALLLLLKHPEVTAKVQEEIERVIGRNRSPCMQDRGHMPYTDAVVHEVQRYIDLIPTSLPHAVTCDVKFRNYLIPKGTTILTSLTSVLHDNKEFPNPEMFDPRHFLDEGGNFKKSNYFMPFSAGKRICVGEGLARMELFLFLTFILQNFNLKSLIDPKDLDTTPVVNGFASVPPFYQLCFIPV
Test: Cytochrome panel assay with activity outcomes. Panel member name: p450-cyp2c19 Compounds with AC50 equal or less than 10 uM are considered active
Assay type: functional
Condition Context: read-out: AC50
So I've got a bunch of molecules here, and I need their AC50 values.

Input line: If you can, please state the reported AC50 value of COc1ccc(NC(=O)NCCCN2CCCCC2C)cc1 (stereo not drawn) .
Output line: 39.8 µM (inconclusive)

Input line: If you can, please state the reported AC50 value of CCOC(=O)c1ccc(NC(=O)C(=O)NCC2CCCO2)cc1 (stereo not drawn) .
Output line: 31.6 µM (inconclusive)

Input line: If you can, please state the reported AC50 value of COc1ccc(-n2c(=O)cnc3cnc(N(C)C)nc32)cc1 .
Output line: 39.8 µM (inconclusive)

Input line: If you can, please state the reported AC50 value of COc1cc(C(=O)N2CCC(NC(=O)C(Cc3ccc(C(C)C)cc3)NC(C)=O)CC2)cc(OC)c1OC (stereo not drawn) .
Output line: 22.4 µM (inconclusive)

Input line: If you can, please state the reported AC50 value of CCOC(=O)c1ccc(NC(=O)COc2ccccc2OC)cc1 .
Output line: 3.98 µM (inconclusive)

Input line: If you can, please state the reported AC50 value of Nc1ccc(/N=N\c2ccccc2)c(N)n1 .
Output line: 7.94 µM (inconclusive)

Input line: If you can, please state the reported AC50 value of CC(C)CN1CC[C@@]2(CCCN(C(=O)c3cc(C(F)(F)F)cc(C(F)(F)F)c3)C2)C1 .
Output line: 39.8 µM (inconclusive)

Input line: If you can, please state the reported AC50 value of c1nc(NCCN2CCOCC2)c2cc(-c3ccc4c(c3)OCO4)ccc2n1 .
Output line: 39.8 µM (inconclusive)

// data source = ChEMBL document CHEMBL1201862
